- targetEntity: LHRH receptor (Rattus norvegicus, UniProt P30969)
- Construct: endogenous in cells
- Sequence (P30969 1-327): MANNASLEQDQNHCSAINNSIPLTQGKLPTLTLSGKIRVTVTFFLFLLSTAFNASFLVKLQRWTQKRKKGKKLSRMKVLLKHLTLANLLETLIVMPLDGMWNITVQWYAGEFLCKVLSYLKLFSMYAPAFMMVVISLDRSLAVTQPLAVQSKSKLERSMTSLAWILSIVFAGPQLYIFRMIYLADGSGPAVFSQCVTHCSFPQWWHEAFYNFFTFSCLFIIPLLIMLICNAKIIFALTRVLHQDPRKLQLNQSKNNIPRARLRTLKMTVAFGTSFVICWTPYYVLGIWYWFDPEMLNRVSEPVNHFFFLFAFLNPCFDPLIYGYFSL
- test: in vitro LHRH antagonist potency (pA2) against the agonist leuprolide
- Assay type: cell-based
- assayContext: negative logarithm of the antagonist concentration which shifts the response curve produced by the agonist leuprolide to two-fold higher concentration
Where a SMILES comes first, the peptide text is derived from it. Side-chain parts run from the residue outwards. [ ]: non-standard residue; d: D form. The star is where a group is joined. Quinoline4carbonyl = O=C(c1ccnc2ccccc12)*; dPhe(4-Cl) = N[C@H](Cc1ccc(Cl)cc1)C(=O)O; d2Nal = N[C@H](Cc1ccc2ccccc2c1)C(=O)O; Lys(iPr) = CC(C)NCCCC[C@H](N)C(=O)O; NMeY = CN[C@@H](Cc1ccc(O)cc1)C(=O)O; d3Pal = N[C@H](Cc1cccnc1)C(=O)O; Nicotinoyl = O=C(c1cccnc1)*; dOrn = NCCC[C@@H](N)C(=O)O; azaGly = NNC(=O)O
Kb for assorted molecules
Form entry: value (nM) — number only.

molecule: CC(=O)N[C@H](Cc1ccc2ccccc2c1)C(=O)N[C@H](Cc1ccc(Cl)cc1)C(=O)N[C@H](Cc1cccnc1)C(=O)N[C@@H](CO)C(=O)N(C)[C@@H](Cc1ccc(O)cc1)C(=O)N[C@H](CCCNC(=O)NNC(=O)c1cccnc1)C(=O)N[C@@H](CC(C)C)C(=O)N[C@@H](CCCCNC(C)C)C(=O)N1CCC[C@H]1C(=O)N[C@H](C)C(N)=O [Example 53a] (Ac-[d2Nal][dPhe(4-Cl)][d3Pal]S[NMeY][dOrn]([azaGly-Nicotinoyl])L[Lys(iPr)]P[dA]-NH2)
valueUnits: nM
Kb: 0.0331

The molecule listed as CC(=O)N[C@H](Cc1ccc2ccccc2c1)C(=O)N[C@H](Cc1ccc(Cl)cc1)C(=O)N[C@H](Cc1cccnc1)C(=O)N[C@@H](CO)C(=O)N(C)[C@@H](Cc1ccc(O)cc1)C(=O)N[C@H](CCCCNC(=O)[C@@H](CO)NC(=O)c1ccnc2ccccc12)C(=O)N[C@@H](CC(C)C)C(=O)N[C@@H](CCCNC(=N)N)C(=O)N1CCC[C@H]1C(=O)N[C@H](C)C(N)=O [Example 50e] (Ac-[d2Nal][dPhe(4-Cl)][d3Pal]S[NMeY][dK]([dS-Quinoline4carbonyl])LRP[dA]-NH2) has a reported Kb of 0.0288

====

- targetEntity: LHRH receptor (Rattus norvegicus)
- Construct: endogenous in cells
- test: in vitro LHRH antagonist potency (pA2) against the agonist leuprolide
- Format: cell-based
- assayContext: negative logarithm of the antagonist concentration which shifts the response curve produced by the agonist leuprolide to two-fold higher concentration
Where a SMILES comes first, the peptide text is derived from it. Side-chain parts run from the residue outwards. [ ]: non-standard residue; d: D form. The star is where a group is joined. ξ: configuration not given here. ξTetrahydrofuran2carbonyl = O=C(C1CCCO1)*; dPhe(4-Cl) = N[C@H](Cc1ccc(Cl)cc1)C(=O)O; d2Nal = N[C@H](Cc1ccc2ccccc2c1)C(=O)O; Lys(iPr) = CC(C)NCCCC[C@H](N)C(=O)O; NMeY = CN[C@@H](Cc1ccc(O)cc1)C(=O)O; d3Pal = N[C@H](Cc1cccnc1)C(=O)O; Nicotinoyl = O=C(c1cccnc1)*; Ava = NCCCCC(=O)O; azaGly = NNC(=O)O
quantityMeasured: Kb (nM)
Form entry: value (nM) — number only.

molecule: CC(=O)N[C@H](Cc1ccc2ccccc2c1)C(=O)N[C@H](Cc1ccc(Cl)cc1)C(=O)N[C@H](Cc1cccnc1)C(=O)N[C@@H](CO)C(=O)N(C)[C@@H](Cc1ccc(O)cc1)C(=O)N[C@H](CCCCNC(=O)CCCCNC(=O)c1cccnc1)C(=O)N[C@@H](CC(C)C)C(=O)N[C@@H](CCCCNC(C)C)C(=O)N1CCC[C@H]1C(=O)N[C@H](C)C(N)=O [Example 43] (Ac-[d2Nal][dPhe(4-Cl)][d3Pal]S[NMeY][dK]([Ava-Nicotinoyl])L[Lys(iPr)]P[dA]-NH2)
Kb / nM: 0.00851

The molecule listed as CC(=O)N[C@H](Cc1ccc2ccccc2c1)C(=O)N[C@H](Cc1ccc(Cl)cc1)C(=O)N[C@H](Cc1cccnc1)C(=O)N[C@@H](CO)C(=O)N(C)[C@@H](Cc1ccc(O)cc1)C(=O)N[C@H](CCCCNC(=O)NNC(=O)C1CCCO1)C(=O)N[C@@H](CC(C)C)C(=O)N[C@@H](CCCCNC(C)C)C(=O)N1CCC[C@H]1C(=O)N[C@H](C)C(N)=O (some centres unmarked) [Example 5a] (Ac-[d2Nal][dPhe(4-Cl)][d3Pal]S[NMeY][dK]([azaGly-ξTetrahydrofuran2carbonyl])L[Lys(iPr)]P[dA]-NH2) has a reported Kb of 0.0191

====

Kb for assorted compounds
- targetEntity: LHRH receptor (Rattus norvegicus, UniProt P30969)
- Construct: endogenous in cells
- test: in vitro LHRH antagonist potency (pA2) against the agonist leuprolide
- Type: cell-based
- assayContext: negative logarithm of the antagonist concentration which shifts the response curve produced by the agonist leuprolide to two-fold higher concentration
Where a SMILES comes first, the peptide text is derived from it. Side-chain parts run from the residue outwards. [ ]: non-standard residue; d: D form. The star is where a group is joined. dPhe(4-Cl) = N[C@H](Cc1ccc(Cl)cc1)C(=O)O; d2Nal = N[C@H](Cc1ccc2ccccc2c1)C(=O)O; Lys(iPr) = CC(C)NCCCC[C@H](N)C(=O)O; NMeY = CN[C@@H](Cc1ccc(O)cc1)C(=O)O; d3Pal = N[C@H](Cc1cccnc1)C(=O)O; 2Furoyl = O=C(c1ccco1)*; azaGly = NNC(=O)O
Form entry: value (pM) — number only.

compound: CC(=O)N[C@H](Cc1ccc2ccccc2c1)C(=O)N[C@H](Cc1ccc(Cl)cc1)C(=O)N[C@H](Cc1cccnc1)C(=O)N[C@@H](CO)C(=O)N(C)[C@@H](Cc1ccc(O)cc1)C(=O)N[C@H](CCCCNC(=O)NNC(=O)c1ccco1)C(=O)N[C@@H](CC(C)C)C(=O)N[C@@H](CCCCNC(C)C)C(=O)N1CCC[C@H]1C(=O)N[C@H](C)C(N)=O [Example 2] (Ac-[d2Nal][dPhe(4-Cl)][d3Pal]S[NMeY][dK]([azaGly-2Furoyl])L[Lys(iPr)]P[dA]-NH2)
quantityMeasured: Kb
valueUnits: pM
result: 1.41

# next compound below
The compound listed as CC(=O)N[C@@H](CO)C(=O)NCCCC[C@@H](NC(=O)[C@H](Cc1ccc(O)cc1)N(C)C(=O)[C@H](CO)NC(=O)[C@@H](Cc1cccnc1)NC(=O)[C@@H](Cc1ccc(Cl)cc1)NC(=O)[C@@H](Cc1ccc2ccccc2c1)NC(C)=O)C(=O)N[C@@H](CC(C)C)C(=O)N[C@@H](CCCNC(=N)N)C(=O)N1CCC[C@H]1C(=O)N[C@H](C)C(N)=O [Example 9] (Ac-[d2Nal][dPhe(4-Cl)][d3Pal]S[NMeY][dK]([Ser-Ac])LRP[dA]-NH2) has a reported Kb of 8.91

====

- targetEntity: LHRH receptor (Rattus norvegicus)
- Construct: endogenous in cells
- Sequence (P30969 1-327): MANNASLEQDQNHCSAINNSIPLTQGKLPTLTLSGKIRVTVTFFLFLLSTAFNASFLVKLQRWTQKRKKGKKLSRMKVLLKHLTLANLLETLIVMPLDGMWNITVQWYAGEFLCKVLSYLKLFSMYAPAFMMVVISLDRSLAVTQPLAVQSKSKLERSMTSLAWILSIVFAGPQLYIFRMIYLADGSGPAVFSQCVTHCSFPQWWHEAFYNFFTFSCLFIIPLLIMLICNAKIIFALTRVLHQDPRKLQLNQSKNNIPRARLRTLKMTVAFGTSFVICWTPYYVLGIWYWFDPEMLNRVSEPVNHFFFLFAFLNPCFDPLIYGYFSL
- test: in vitro LHRH antagonist potency (pA2) against the agonist leuprolide
- Format: cell-based
- assayContext: negative logarithm of the antagonist concentration which shifts the response curve produced by the agonist leuprolide to two-fold higher concentration
Where a SMILES comes first, the peptide text is derived from it. Side-chain parts run from the residue outwards. [ ]: non-standard residue; d: D form. The star is where a group is joined. Shikimoyl = O=C(C1=C[C@@H](O)[C@@H](O)[C@H](O)C1)*; dPhe(4-Cl) = N[C@H](Cc1ccc(Cl)cc1)C(=O)O; d2Nal = N[C@H](Cc1ccc2ccccc2c1)C(=O)O; NMeY = CN[C@@H](Cc1ccc(O)cc1)C(=O)O; d3Pal = N[C@H](Cc1cccnc1)C(=O)O
quantityMeasured: Kb (pM)
Form entry: value (pM) — number only.

The compound listed as CC(=O)N[C@H](Cc1ccc2ccccc2c1)C(=O)N[C@H](Cc1ccc(Cl)cc1)C(=O)N[C@H](Cc1cccnc1)C(=O)N[C@@H](CO)C(=O)N(C)[C@@H](Cc1ccc(O)cc1)C(=O)N[C@H](CCCCNC(=O)[C@@H](Cc1c[nH]cn1)NC(=O)C1=C[C@@H](O)[C@@H](O)[C@H](O)C1)C(=O)N[C@@H](CC(C)C)C(=O)N[C@@H](CCCNC(=N)N)C(=O)N1CCC[C@H]1C(=O)N[C@H](C)C(N)=O [Example 38e] (Ac-[d2Nal][dPhe(4-Cl)][d3Pal]S[NMeY][dK]([dH-Shikimoyl])LRP[dA]-NH2) has a reported Kb of 43.7
